- tested-on: Plexin B1
- protocol-summary: KD (nM)
test-readout: Kd (nM)
Write the number in nM without appending the unit.

Any idea what its Kd is? The substance is wRPRVARWTGQITYC [P6]
3.81
